# system_name: T1, SERF2 (human, UniProt P84101 1-59)
# T1 sequence: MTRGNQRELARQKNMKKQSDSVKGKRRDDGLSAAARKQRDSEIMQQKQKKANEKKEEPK
# method_summary: fluorescence polarization; 100 mM KCl; FP/anisotropy: 20 mM NaPi pH 7.4, 100 mM KCl, 25 C (20-200 nM probe); NMR: same buffer, 4 C
# study_conditions: protein: recombinant; tags: His-SUMO removed; AF488-labeled in some assays; label: 6-FAM (FP); unlabeled (NMR, EMSA); intramolecular G4
pKd: −log10 of the molar value.
measured_attribute: pKd

In [3]: df
Out[3]:
                                     binder  numeric_value
0  UAGGGUUAGGGUUAGGGUUAGGG (structured_RNA) [TERRA23]           6.52
